Assayed system: PTPRZ-ICR N1758D mutant (Homo sapiens, UniProt P23471, DEL1723-1729/N1758D)
Sequence (P23471 1698-2308 isoform P23471-2 N1751D limits assumed): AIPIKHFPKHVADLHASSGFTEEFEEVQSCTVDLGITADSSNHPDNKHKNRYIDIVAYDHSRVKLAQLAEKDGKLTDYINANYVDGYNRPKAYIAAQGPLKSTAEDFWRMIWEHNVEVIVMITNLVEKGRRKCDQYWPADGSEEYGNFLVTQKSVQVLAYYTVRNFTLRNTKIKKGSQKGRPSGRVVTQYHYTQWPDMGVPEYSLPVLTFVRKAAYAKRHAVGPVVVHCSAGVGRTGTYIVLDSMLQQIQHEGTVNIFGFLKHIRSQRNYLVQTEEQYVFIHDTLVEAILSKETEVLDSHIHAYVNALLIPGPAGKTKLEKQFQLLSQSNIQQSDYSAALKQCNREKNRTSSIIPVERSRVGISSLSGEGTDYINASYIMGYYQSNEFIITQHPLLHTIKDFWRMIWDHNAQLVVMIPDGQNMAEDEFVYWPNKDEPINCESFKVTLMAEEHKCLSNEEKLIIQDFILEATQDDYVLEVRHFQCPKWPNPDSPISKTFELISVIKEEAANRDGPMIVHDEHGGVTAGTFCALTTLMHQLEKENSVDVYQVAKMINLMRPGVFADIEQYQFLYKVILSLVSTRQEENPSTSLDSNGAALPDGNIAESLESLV
Experiment description: Inhibitor sensitivity of site-directed mutant, pCAP assay
Condition description: compounds 10 μM, 20 μM pCAP-GIT1_549–556
Measured quantity: Inhibitor sensitivity of N1758D mutant versus wild-type enzyme

[
  {
    "Compound": "O=S(=O)([O-])c1ccc2c(N=Nc3ccc(S(=O)(=O)[O-])c4ccccc34)c(O)c(S(=O)(=O)[O-])cc2c1.[Na+].[Na+].[Na+] [SCB4380]",
    "Result": "resistant to inhibition"
  },
  {
    "Compound": "O=S(=O)([O-])c1ccc2c(N=Nc3cccc4ccccc34)c(O)c(S(=O)(=O)[O-])cc2c1.[Na+].[Na+] [compound 5]",
    "Result": "resistant to inhibition"
  }
]

---

Assayed system: PTPRZ (Homo sapiens, UniProt P23471, DEL1723-1729)
Sequence (P23471 1698-2308 isoform P23471-2 limits assumed, stated change not applied): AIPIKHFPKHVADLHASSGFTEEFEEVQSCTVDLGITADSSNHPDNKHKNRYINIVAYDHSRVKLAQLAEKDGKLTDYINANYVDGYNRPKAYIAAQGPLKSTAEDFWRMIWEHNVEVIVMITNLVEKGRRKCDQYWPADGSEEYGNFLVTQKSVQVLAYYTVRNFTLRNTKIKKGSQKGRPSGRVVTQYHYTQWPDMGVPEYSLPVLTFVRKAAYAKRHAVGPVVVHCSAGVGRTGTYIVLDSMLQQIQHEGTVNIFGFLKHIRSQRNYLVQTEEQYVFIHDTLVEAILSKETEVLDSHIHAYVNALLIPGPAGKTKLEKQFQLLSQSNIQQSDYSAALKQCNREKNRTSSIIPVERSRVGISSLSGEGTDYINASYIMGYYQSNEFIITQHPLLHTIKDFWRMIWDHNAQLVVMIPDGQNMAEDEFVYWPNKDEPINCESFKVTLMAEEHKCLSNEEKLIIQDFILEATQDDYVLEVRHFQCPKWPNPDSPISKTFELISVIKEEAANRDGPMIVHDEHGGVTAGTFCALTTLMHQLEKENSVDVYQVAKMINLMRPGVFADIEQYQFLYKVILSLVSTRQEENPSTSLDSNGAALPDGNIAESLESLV
Experiment description: PTP selectivity assay with DiFMUP substrate
Measured quantity: pIC50
Kindly note that pIC50 refers to -log10 of the concentration in mol/L and answer with the value alone.

response.value for O=S(=O)([O-])c1ccc2c(N=Nc3ccc(S(=O)(=O)[O-])c4ccccc34)c(O)c(S(=O)(=O)[O-])cc2c1.[Na+].[Na+].[Na+] (field: pIC50) = 6.40

---

Measured quantity: IC50

Measured IC50 (human PTPRM (Homo sapiens, UniProt P28827)), entry O=S(=O)([O-])c1ccc2c(N=Nc3ccc(S(=O)(=O)[O-])c4ccccc34)c(O)c(S(=O)(=O)[O-])cc2c1.[Na+].[Na+].[Na+] : 60.7 µM

---

Assayed system: PTPRZ-ICR (Homo sapiens, UniProt P23471, DEL1723-1729)
Sequence (P23471 1698-2308 isoform P23471-2 limits assumed, stated change not applied): as the sequence (P23471 1698-2308 isoform P23471-2 limits assumed, stated change not applied) above
Experiment description: Hydrolysis of pCAP-GIT1_549–556 by human PTPRZ-ICR, IC50 and kinetic analysis
Measured quantity: IC50 (µM)
Kindly provide the numeric value in µM only, without the unit symbol.

response.value for O=S(=O)([O-])c1ccc2c(N=Nc3ccc(S(=O)(=O)[O-])c4ccccc34)c(O)c(S(=O)(=O)[O-])cc2c1.[Na+].[Na+].[Na+] [SCB4380] (field: IC50) = 0.4
